# system: T1, biotin-labeled human CD137 fused to human IgG1 Fc fragment (human, biotin-labeled)
# T1 construct: Immobilised on streptavidin beads through biotin; also called human CD137-Fc; biotin-human CD137-Fc
# experimentNotes: competitive bead ELISA, decrease of signal on biotin-human CD137-Fc with 125 pmol/well free CD3 epsilon peptide against 0
Task for the reader: assign each of the following binders its reported Signal decrease.
One number for each entry, in %.

Example results:
1. dBBDu202 (antibody, human IgG1, V domains shown, IgG: VH joined to human IgG1 CH1-Fc, GLS3000 as light chain) VH: QVQLVESGGGLVQPGRSLRLSCAASGFTFSNAWMHWVRQAPGKGLEWVAQIKDKGNAYAAYYAPSVKGRFTISRDDSKNSIYLQMNSLKTEDTAVYYCHYVHYSAASTVLPAFGVDAWGQGTTVTVSS VL: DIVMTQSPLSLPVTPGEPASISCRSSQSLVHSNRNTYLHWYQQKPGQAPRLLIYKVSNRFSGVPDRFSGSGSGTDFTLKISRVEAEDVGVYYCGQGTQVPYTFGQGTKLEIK
84
2. dBBDu121 (antibody, human IgG1, V domains shown, IgG: VH joined to human IgG1 CH1-Fc, GLS3000 as light chain; also called DXDU01_3_#094; DXDU01_3 #094) VH: QVQLVESGGGLVQPGRSLRLSCAASGFTFSNAWMHWVRQAPGKGLEWVAQIKDKGNAYAAYYAPSVKGRFTISRDDSKNSIYLQMNSLKTEDTAVYYCHYVHYASAAGGLPGFGVDAWGQGTTVTVSS VL: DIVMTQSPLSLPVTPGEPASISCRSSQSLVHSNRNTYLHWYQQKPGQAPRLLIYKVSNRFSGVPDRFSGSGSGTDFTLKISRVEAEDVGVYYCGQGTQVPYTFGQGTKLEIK
49.4

Let's switch to this binder now.
Lab book: Signal decrease of dBBDu217 (antibody, human IgG1, V domains shown, IgG: VH joined to human IgG1 CH1-Fc, GLS3000 as light chain) VH: QVQLVESGGGLVQPGRSLRLSCAASGFTFSNAWMHWVRQAPGKGLEWVAQIKDRQQGYATYYAPSVKGRFTISRDDSKNSIYLQMNSLKTEDTAVYYCRFVHYHLAGYGYYGVDAWGQGTTVTVSS VL: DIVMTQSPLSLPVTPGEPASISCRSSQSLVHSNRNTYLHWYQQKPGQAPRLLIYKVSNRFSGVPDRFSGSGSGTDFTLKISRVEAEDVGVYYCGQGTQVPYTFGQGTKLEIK noted as 87.3
